# Tested on: MKL-2
# experimental.protocol: qHTS assay to identify novel small-molecules to repurpose for Merkel cell carcinoma treatment (AID 1296009); further: nearly all actives have a fitted effect of over 60% in size
# test.conditions: MCC and control cell lines, CellTiter-Glo viability, 72 h; series mostly up to 46 µM
Results filed as inconclusive are left out. Activity calls are given as the source filed them. The call rests on the fitted dose curve; in most records, active means well fitted inhibition curve with a large enough effect; inconclusive means small, poorly fitted or top-dose-only effect; inactive means flat fitted curve, though single readings scatter.
Reply using exactly one outcome from active, inactive

Dear all, I need the recorded test outcome for O=C(O)C(O)Cc1ccc(O)c(O)c1 (stereo not given) , thank you.
inactive

Dear all, I need the recorded test outcome for `Nc1ncnc2c1ncn2[C@@H]1O[C@H](CO)C[C@@H]1O` , thank you.
inactive

Dear all, I need the recorded test outcome for `Cc1ccc(C(=O)Nc2cccc(C(F)(F)F)c2)cc1Nc1nc(-c2cccnc2)nc2c1cnn2C` , thank you.
inactive

Dear all, I need the recorded test outcome for `CC(C)C(=O)Oc1ccc(CO)cc1[C@H](CCN(C(C)C)C(C)C)c1ccccc1` , thank you.
inactive

Dear all, I need the recorded test outcome for `NC(=O)c1cccc2[nH]c(-c3ccc([C@H]4CCCN4)cc3F)nc12` , thank you.
active

----------
# System: MCC-13
# experimental.protocol: qHTS assay to identify novel small-molecules to repurpose for Merkel cell carcinoma treatment (AID 1296009); further: nearly all actives have a fitted effect of over 60% in size
# test.conditions: MCC and control cell lines, CellTiter-Glo viability, 72 h; series mostly up to 46 µM
Results filed as inconclusive are left out. Calls of active or inactive are those of the source. Calls come from the whole dose curve; as a rule, active = well fitted inhibition curve with a large enough effect; inconclusive = small, poorly fitted or top-dose-only effect; inactive = flat fitted curve, though single readings scatter.
Reply using exactly one outcome from active, inactive

Dear all, I need the recorded test outcome for `O=C1C(Cl)=C(NCCN2CCOCC2)C(=O)c2ncccc21` , thank you.
active

Dear all, I need the recorded test outcome for `O=c1ccn([C@@H]2O[C@H](CO)[C@H](O)[C@H]2O)c(=O)[nH]1` , thank you.
inactive

Dear all, I need the recorded test outcome for `COc1cc(Nc2ncc(F)c(Nc3ccc4c(n3)NC(=O)C(C)(C)O4)n2)cc(OC)c1OC` , thank you.
inactive

Dear all, I need the recorded test outcome for `CC1(C)O[C@H]2C[C@@H]3[C@H]4CCC5=CC(=O)C=C[C@]5(C)[C@@]4(F)[C@@H](O)C[C@]3(C)[C@]2(C(=O)CO)O1` , thank you.
inactive

Dear all, I need the recorded test outcome for `CC=CC(=O)N(CC)c1ccccc1C` , thank you.
inactive

Dear all, I need the recorded test outcome for `O=C(O)c1ccccc1C(=O)Nc1ccc(-c2ccccc2)cc1` , thank you.
inactive

Dear all, I need the recorded test outcome for `CC(=O)O[C@]1(C(C)=O)CC[C@H]2[C@@H]3C=C(Cl)C4=CC(=O)[C@@H]5C[C@@H]5[C@]4(C)[C@H]3CC[C@@]21C` , thank you.
inactive

Dear all, I need the recorded test outcome for CC(C)C(C)C=CC(C)C1CCC2C3=CC=C4CC(O)CCC4(C)C3CCC21C (stereo not given) , thank you.
inactive

Dear all, I need the recorded test outcome for `COc1ccc2c(Oc3ccc(NC(=O)c4c(C)n(CC(C)(C)O)n(-c5ccccc5)c4=O)nc3)ccnc2c1` , thank you.
inactive

Dear all, I need the recorded test outcome for `OC[C@@H](O)[C@H](O)[C@H](O)[C@@H](O)CO` , thank you.
inactive

Dear all, I need the recorded test outcome for CC(C)(C)c1ccc(C(O)CCCN2CCC(C(O)(c3ccccc3)c3ccccc3)CC2)cc1 (stereo not given) , thank you.
inactive

Dear all, I need the recorded test outcome for `NC(=O)c1cccc(-c2cc(Nc3ccc(OC(F)(F)F)cc3)ncn2)c1` , thank you.
inactive

Dear all, I need the recorded test outcome for Cc1ccc(C(C)(O)c2nc3ccccc3s2)c(C)c1 (stereo not given) , thank you.
inactive

Dear all, I need the recorded test outcome for `Oc1ccc(C2=Cc3ccc(O)cc3OC2)cc1` , thank you.
active

Dear all, I need the recorded test outcome for `CCC(=O)O[C@]1(C(=O)CO)CC[C@H]2[C@@H]3CCC4=CC(=O)CC[C@]4(C)[C@@H]3CC[C@@]21C` , thank you.
inactive

Dear all, I need the recorded test outcome for `c1cc(-c2sc(-c3ccncc3)c(-c3ccncc3)c2-c2ccncc2)ccn1` , thank you.
inactive

Dear all, I need the recorded test outcome for `COC(=O)[C@@H]1[C@H]2C[C@H]3c4[nH]c5ccccc5c4CCN3C[C@@H]2CC[C@@H]1O` , thank you.
inactive

Dear all, I need the recorded test outcome for `CC(=O)O[C@]1(C(C)=O)CC[C@@H]2[C@@H]3C[C@H](C)C4=CC(=O)CC[C@]4(C)[C@H]3CC[C@@]21C` , thank you.
inactive

Dear all, I need the recorded test outcome for `O=c1cc(-c2ccccc2)oc2cc(O)c(O)c(O)c12` , thank you.
inactive

Dear all, I need the recorded test outcome for CCOC(=O)C1=C(N)Oc2ccc(Br)cc2C1C(C#N)C(=O)OCC (stereo not given) , thank you.
inactive

----------
# experimental.protocol: Quantitative High-Throughput drug screen in 47 multiple myeloma cell lines against the NCATS MIPE library collection: INA6_PLB cell viability assay (AID 1918965; further: nearly all actives have a fitted effect of over 55% in size)
# test.conditions: INA6 myeloma viability, CellTiter-Glo ATP luminescence, 48 h; series mostly up to 45.8 µM
# Text: PI: Beverly A. Mock Ph.D. Laboratory of Cancer Biology and Genetics, Center for Cancer Research, National Cancer Institute, National Institute of Health, Bethesda, Maryland […] 5; Detector; 425V; Luminescence; Viewlux PerkinElmer. […] 1. […] Briefly, the corresponding myeloma cell lines were screened in 1,536-well plates with 500 cells, 5-uL per well for inhibition of cell viability (assessed by measuring ATP levels with CellTiterGlo). […]
Results filed as inconclusive are left out. Active and inactive are the calls of the source. Calls follow the shape of the dose curve; as a rule, active = well fitted cell-killing curve with a large enough effect; inconclusive = small, poorly fitted or top-dose-only effect, or effect the other way; inactive = no such curve, though single readings can be large or run the other way.
Reply using exactly one outcome from 1 = active, -1 = inactive

Dear all, I need the recorded test outcome for `O=c1c(-c2ccc(O)cc2)coc2cc(O)ccc12` , thank you.
-1

Dear all, I need the recorded test outcome for `c1ccc2c(-c3cnn4cc(-c5ccc(N6CCNCC6)cc5)cnc34)ccnc2c1` , thank you.
1

Dear all, I need the recorded test outcome for `CO[C@H]1C=CC=C(C)C(=O)NC2=CC(=O)C(NCCN(C)C)=C(C[C@@H](C)C[C@H](OC)[C@@H](O)[C@@H](C)C=C(C)[C@@H]1OC(N)=O)C2=O` , thank you.
1

Dear all, I need the recorded test outcome for `CC(C)n1cnc2c(NCCCCCCNC(=O)OC(C)(C)C)nc(NCCO)nc21` , thank you.
1

Dear all, I need the recorded test outcome for `Oc1ccc(C2CCN(c3ccnc4ccccc34)CC2)cc1O` , thank you.
1

Dear all, I need the recorded test outcome for COCCOC(=O)C1=C(C)NC2=C(C(=O)CC(c3ccccc3OC)C2)C1c1cccc(O)c1 (stereo not drawn) , thank you.
1

Dear all, I need the recorded test outcome for `CC[C@@]1(O)C[C@H](O[C@H]2C[C@H](N(C)C)[C@H](O[C@H]3C[C@H](O)[C@H](O[C@H]4CCC(=O)[C@H](C)O4)[C@H](C)O3)[C@H](C)O2)c2c(cc3c(c2O)C(=O)c2c(O)cccc2C3=O)[C@@H]1C(=O)OC` , thank you.
1

Dear all, I need the recorded test outcome for CCOC(=O)C1=C(N)Oc2ccc(Br)cc2C1C(C#N)C(=O)OCC (stereo not drawn) , thank you.
1

Dear all, I need the recorded test outcome for `CC(=O)N(C)C1(c2ccccc2)CCN(CCC[C@]2(c3ccc(Cl)c(Cl)c3)CCCN(C(=O)c3ccccc3)C2)CC1` , thank you.
1

Dear all, I need the recorded test outcome for `CC(=Cc1ccccc1)C=C1SC(=S)N(CC(=O)O)C1=O` , thank you.
-1

Dear all, I need the recorded test outcome for `CCc1ccc(OCc2ccccc2C(=O)Nc2ccc3nc(C)cc(N)c3c2)cc1` , thank you.
1

Dear all, I need the recorded test outcome for `CN(C)c1cc(NC(=O)CNC(C)(C)C)c(O)c2c1C[C@@H]1C[C@H]3[C@H](N(C)C)C(=O)C(C(N)=O)=C(O)[C@@]3(O)C(=O)C1=C2O` , thank you.
-1

Dear all, I need the recorded test outcome for `CCOc1ccc(Nc2nc(-c3c(C)nc4ccccn34)cs2)cc1` , thank you.
1

Dear all, I need the recorded test outcome for `Clc1cc(Cl)cc(CNc2ncncc2-c2ccc3c(c2)OCO3)c1` , thank you.
1

Dear all, I need the recorded test outcome for `COc1ccc(-c2coc3cc(O)ccc3c2=O)cc1` , thank you.
-1

Dear all, I need the recorded test outcome for `NC(=O)c1ccc2nc(-c3ccc(Oc4ccc(Cl)cc4)cc3)[nH]c2c1` , thank you.
1

Dear all, I need the recorded test outcome for `O=c1cc(N2CCOCC2)oc2c(-c3cccc4c3sc3ccccc34)cccc12` , thank you.
1

Dear all, I need the recorded test outcome for `COC[C@@H](c1ccc(C(F)(F)F)cc1)N1CCN(C2(C)CCN(C(=O)c3c(C)ncnc3C)CC2)C[C@H]1C` , thank you.
1

----------
# experimental.protocol: qHTS for identification of novel therapeutic agents for treatment of microphthalmiaassociated transcription factor (MiT) renal cell carcinoma (RCC) (AID 1963991);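 further: curves scaled with 100% = DMSO viability and 0% = empty wells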
# test.conditions: TFE3-RCC UOK109 viability, CellTiter-Glo, 48 h; measured here: UOK109 Z-AUC; stronger effect = lower value
Inconclusive results are not listed.
measure.name: z-score
Hey, just send me the number, nothing else.

Given the entry `C[C@@H]1CCN(C(=O)CC#N)C[C@H]1N(C)c1ncnc2[nH]ccc12` , report its measured z-score.
-0.116

Given the entry `CC(C)(C)c1cc(C(=O)O)c(NC(=O)Nc2ccc3[nH]ncc3c2)s1` , report its measured z-score.
0.185

Given the entry `O=C(Nc1c(Cl)cncc1Cl)c1ccc(OC(F)F)c(OCC2CC2)c1` , report its measured z-score.
-0.715

Given the entry `CC(C)(C)NC(=O)Nc1cccc(Nc2ncc(F)c(NC(C)(C)CO)n2)c1` , report its measured z-score.
1.09

Given the entry `COc1cc2nc(-c3ccc(N4CCN(C)CC4)cc3)nc(NCCN3CCOCC3)c2cc1OC` , report its measured z-score.
-1.15

Given the entry `CC=CC(=O)N(CC)c1ccccc1C` , report its measured z-score.
1.15

Given the entry `Clc1ccc(-c2nc3sccn3c2C=NOCc2ccc(Cl)c(Cl)c2)cc1` , report its measured z-score.
0.77

Given the entry `COc1ccc(-c2coc3cc(O)ccc3c2=O)cc1` , report its measured z-score.
0.416

Given the entry `C[C@H]1[C@H](NC(=O)C(=NOC(C)(C)C(=O)O)c2csc(N)n2)C(=O)N1S(=O)(=O)O` , report its measured z-score.
1.25

Given the entry `O=C1C[C@@H](c2ccc(O)cc2)Oc2cc(O)cc(O)c21` , report its measured z-score.
0.38

Cited source for all entries: PubChem BioAssay (NCATS)
